Numbers sourced from patent US20190233494A1.

- System Name: T1, RXFP1 receptor (endogenous, on OVCAR5 cells) (UniProt Q9HBX9 1-757, limits assumed)
- T1 sequence (looked up): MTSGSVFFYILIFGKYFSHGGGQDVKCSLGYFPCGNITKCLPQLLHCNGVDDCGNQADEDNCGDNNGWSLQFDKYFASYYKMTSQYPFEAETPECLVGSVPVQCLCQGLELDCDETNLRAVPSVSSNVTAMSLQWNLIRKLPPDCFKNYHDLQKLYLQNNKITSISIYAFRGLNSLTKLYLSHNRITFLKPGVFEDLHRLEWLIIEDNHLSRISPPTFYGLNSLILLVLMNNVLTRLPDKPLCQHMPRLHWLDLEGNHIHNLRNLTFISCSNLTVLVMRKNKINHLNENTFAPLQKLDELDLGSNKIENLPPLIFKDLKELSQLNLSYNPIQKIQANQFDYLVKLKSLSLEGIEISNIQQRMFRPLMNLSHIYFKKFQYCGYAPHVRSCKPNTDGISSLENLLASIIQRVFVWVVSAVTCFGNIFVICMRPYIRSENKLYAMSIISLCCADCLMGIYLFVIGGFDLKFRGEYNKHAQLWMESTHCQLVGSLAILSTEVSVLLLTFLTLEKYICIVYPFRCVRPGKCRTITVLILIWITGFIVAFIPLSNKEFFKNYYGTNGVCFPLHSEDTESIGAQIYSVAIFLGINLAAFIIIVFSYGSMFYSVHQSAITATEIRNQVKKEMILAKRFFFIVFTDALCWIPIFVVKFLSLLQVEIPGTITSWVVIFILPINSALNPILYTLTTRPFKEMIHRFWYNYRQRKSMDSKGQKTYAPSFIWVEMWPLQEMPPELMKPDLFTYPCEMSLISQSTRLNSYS
- Method: cell-based or functional assay
Starred links: 1 amine or outer side, 2 acyl side, 3 side chain; linkers in the order of their positions; H or OH if unused. Non-standard residues stand in square brackets, D forms with d. Groups on a side chain read outwards from the residue. *: point of attachment. TTDS = 4-[3-[2-[2-(3-aminopropoxy)ethoxy]ethoxy]propylamino]-4-oxo-butanoyl; γGlu = O=C(O)[C@H](CCC(=O)[*:2])N[*:1]; Palmitoyl = CCCCCCCCCCCCCCCC(=O)*; αMeK = C[C@](N)(CCCCN)C(=O)O; hLys = NCCCCC[C@H](N)C(=O)O; Aib = CC(C)(N)C(=O)O
Recorded Metric: EC50 (nM), OVCAR 5 cells (cAMP)

- Binder: "Ac-LEGREKVRAK(Ac)I[Aib][Aib]EGK([TTDS-TTDS-TTDS-γGlu-γGlu-γGlu-Palmitoyl])SKWS[Aib]RKK(Ac)-NH2 [peptide of SEQ ID NO: 83]"
  Units Symbol: "nM"
  Measured: 0.25
- Binder: "Ac-LEGRERVRAK(Ac)I[Aib][Aib]EGK([TTDS-TTDS-TTDS-γGlu-γGlu-γGlu-Palmitoyl])STFS[Aib]RRK(Ac)-NH2 [peptide of SEQ ID NO: 76]"
  Units Symbol: "nM"
  Measured: 0.18
- Binder: "Ac-LEGREKVRAK(Ac)I[Aib][Aib]EGK([TTDS-TTDS-TTDS-γGlu-γGlu-γGlu-Palmitoyl])STFS[Dlys]RAK(Ac)-NH2 [peptide of SEQ ID NO: 36]"
  Units Symbol: "nM"
  Measured: 3.6
- Binder: "Ac-LEGREKVRAK(Ac)I[Aib][Aib]EGK([TTDS-TTDS-TTDS-γGlu-γGlu-γGlu-Palmitoyl])STWS[hLys]RAK(Ac)-NH2 [peptide of SEQ ID NO: 57]"
  Units Symbol: "nM"
  Measured: 0.44
- Binder: "Ac-LEGREKVRAK(Ac)I[Aib][Aib]EGK([TTDS-TTDS-TTDS-γGlu-γGlu-γGlu-Palmitoyl])STWK(Ac)[Aib]RAK(Ac)-NH2 [peptide of SEQ ID NO: 66]"
  Units Symbol: "nM"
  Measured: 6.31
- Binder: "Ac-LEGREKVRAK(Ac)I[Aib][Aib]EGK([TTDS-TTDS-TTDS-γGlu-γGlu-γGlu-γGlu-Palmitoyl])STWS[Aib]RKK(Ac)-NH2 [peptide of SEQ ID NO: 62]"
  Units Symbol: "nM"
  Measured: 0.6
- Binder: "Ac-LEGRERVRAK(Ac)I[Aib][Aib]EGK([TTDS-TTDS-TTDS-γGlu-γGlu-γGlu-Palmitoyl])STFS[αMeK]RAK(Ac)-NH2 [peptide of SEQ ID NO: 27]"
  Units Symbol: "nM"
  Measured: 1.8
- Binder: "Ac-LEGREKVRAK(Ac)I[Aib][Aib]EGK([TTDS-TTDS-γGlu-γGlu-γGlu-γGlu-Palmitoyl])STFS[αMeK]RAK(Ac)-NH2 [peptide of SEQ ID NO: 10]"
  Units Symbol: "nM"
  Measured: 0.79
- Binder: "Ac-LEGREKVRAK(Ac)I[Aib][Aib]EGK([TTDS-TTDS-TTDS-γGlu-γGlu-γGlu-Palmitoyl])STWS[Aib]RKK(Ac)-NH2 [peptide of SEQ ID NO: 1]"
  Units Symbol: "nM"
  Measured: 1.5
